- TARGET OR SYSTEM: Glucose-dependent insulinotropic receptor (Homo sapiens) (UniProt Q8TDV5)
- Sequence (Q8TDV5 whole entry, looked up): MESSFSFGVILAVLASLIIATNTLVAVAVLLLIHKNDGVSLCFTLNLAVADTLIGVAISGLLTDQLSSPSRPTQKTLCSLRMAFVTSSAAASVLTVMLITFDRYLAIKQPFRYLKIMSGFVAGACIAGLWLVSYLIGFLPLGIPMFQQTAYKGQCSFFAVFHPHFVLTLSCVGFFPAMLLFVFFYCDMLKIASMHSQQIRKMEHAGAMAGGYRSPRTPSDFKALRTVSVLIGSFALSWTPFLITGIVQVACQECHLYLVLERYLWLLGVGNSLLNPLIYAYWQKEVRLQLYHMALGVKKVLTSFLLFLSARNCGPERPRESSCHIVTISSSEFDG
- RUN DESCRIPTION: off-target GPR119 activation – cell-based, PathHunter beta-arrestin, luminescence, set 2, counter-screen for GPR151 activator project, confirmation (AID 1508607);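 further: 0% = median of sample wells and 100% = wells given EA reagent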
- STUDY CONDITIONS: GPR119 PathHunter beta-arrestin cells, 90 min, at 11.2 µM
The whole screen tested about 2,300 compounds, of which about 20 (0.9%) were called active.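 How the source made its calls: active means mean percent activation across replicates above the counterscreen hit cutoff of 9.17%; inactive means the rest.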 The sample as a whole holds a higher share of actives than the screen did.
Output constraint: value belongs to active, inactive

Each molecule tested received a call. Report the one for CC1Oc2cccnc2N(Cc2cccc(C#N)c2)C1=O (stereo not drawn) .
inactive

Each molecule tested received a call. Report the one for `COc1ccc(-n2ncc3c(Nc4ccc(C(C)C)cc4)ncnc32)cc1` .
active

Each molecule tested received a call. Report the one for `C=CCN1C(=O)/C(=C2\SC(N3CCCCC3)=NC2=O)c2cc(Br)ccc21` .
inactive

* * *

- TARGET OR SYSTEM: Glucose-dependent insulinotropic receptor (Homo sapiens)
- RUN DESCRIPTION: off-target GPR119 activation – cell-based, PathHunter beta-arrestin, luminescence, set 2, counter-screen for GPR151 activator project, confirmation (AID 1508607);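 further: 0% = median of sample wells and 100% = wells given EA reagent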
- STUDY CONDITIONS: GPR119 PathHunter beta-arrestin cells, 90 min, at 11.2 µM, active compounds read high
The campaign covered roughly 2,300 compounds. About 20 (0.9%) were called active. The entries come from a sample that favours actives as a whole.
Provide the reported activation of each item.
Report only the number, with the unit % understood.

Look up activation for this compound: `Cc1cccc(Cn2c(=O)c3ccccc3n3nncc23)c1`
3.36

Look up activation for this compound: `O=C(Nc1cc(Cl)ccc1Cl)c1ccccc1O`
-0.02

Look up activation for this compound: CC1(C(=O)NCC2Cc3cccc(-c4ncccn4)c3O2)CC1 (stereo not given)
1.78

Look up activation for this compound: CC1=NNC(=O)C1CCC(=O)N/N=C(\C)c1ccc(C)cc1 (stereo not given)
-4.69

Look up activation for this compound: `Cc1cccc2c(N3CCCC3)nc(CNS(=O)(=O)c3ccc4c(c3)OCCO4)nc12`
-0.61
